Would you mind telling me the reported selectivity ratio of each entry?
# procedure_text: Selectivity index, ratio of compound concentration showing <20 to <30% hemolysis in mouse RBC to MIC for fluconazole/ITC-susceptible Candida albicans ATCC MYA-2310
# Format: toxicity
# measurement_setup: mouse red blood cells (RBC), read-out: Selectivity Index

Previously resolved entries follow.
structure | selectivity ratio
COc1ccc(N/N=C/c2ccc(-c3ccc(/C=N/Nc4ccc(OC)cc4)cc3)cc2)cc1 | 1 to 32
Fc1cccc(N/N=C/c2ccc(-c3ccc(/C=N/Nc4cccc(F)c4)cc3)cc2)c1 | 1 to 32
Fc1ccc(N/N=C/c2ccc(-c3cccc(/C=N/Nc4ccc(F)cc4)c3)cc2)cc1 | 1 to 32
Fc1ccc(N/N=C/c2ccc(-c3ccc(/C=N/Nc4ccc(F)cc4)cc3)cc2)cc1 | 1 to 32
COc1ccc(N/N=C/c2ccc(-c3cccc(/C=N/Nc4ccc(OC)cc4)c3)cc2)cc1 | 1 to 32

Proceeding to the next compound to report its selectivity ratio.
The recorded selectivity ratio for C/C(=N\Nc1ccc(F)cc1)c1ccc(-c2ccc(/C(C)=N/Nc3ccc(F)cc3)cc2)cc1 is 1 to 32

Data credit: ChEMBL document CHEMBL4411307
